# System: T. brucei rhodesiense
# Procedure Summary: Screening against T. brucei rhodesiense (Table 2)
# Format: cell-based, Trypanosoma brucei rhodesiense
# Measurement Conditions: Trypanosoma brucei, RHODESIENSE
Experimental Endpoint: IC50

So what IC50 did Nc1nc(N)nc(Nc2ccc([As]3SCC(CO)S3)cc2)n1 (stereo not shown) [Melarsoprol] get with T. brucei rhodesiense?
10 nM

---

# Tested on: P. falciparum
# Procedure Summary: Screening against P. falciparum (Table 2)
# Type: cell-based, Plasmodium falciparum
pIC50: −log10 of the molar value.
Experimental Endpoint: pIC50

Consider the compound OC1C(Cc2ccccc2)OC2COC(c3ccc(Cl)cc3)OC2C1O (stereo not shown) and give its measured pIC50.
< 4.88

---

# Tested on: Leishmania donovani MHOM/ET/67/L82
# Procedure Summary: Leishmania donovani amastigotes in primary peritoneal mouse macrophages, parasite growth after 96 hours
# Format: cell-based
# Measurement Conditions: 96 hours of incubation, read-out: IC50 L. donovani
pIC50: −log10 of the molar value.
Experimental Endpoint: pIC50

Consider the compound OC1C(Cc2ccccc2)OC2COC(c3ccc(Cl)cc3)OC2C1O (stereo not shown) [Compound A3] and give its measured pIC50.
> 6.01

# credit: patent US7125854B2
